ASSAYED SYSTEM: Androgen receptor (Homo sapiens, UniProt P10275)
METHOD DESCRIPTION: Binding affinity to human androgen receptor
Here the recorded log10 IC50 is given for each entry.
QUANTITY: log10 IC50 (log10 of the value in nM)

COMPOUND: CSc1ccc(CN2CC(C)(C)C(Oc3ccc(C#N)c(C(F)(F)F)c3)C2=O)cc1 (single isomer, unassigned; (+))
MEASUREMENT: 2.50

COMPOUND: CCC(CC)CN1CC(C)(C)C(Oc2ccc(C#N)c(C(F)(F)F)c2)C1=O (racemic)
MEASUREMENT: 2.65

COMPOUND: CC1(C)COC(=O)[C@H]1Oc1ccc(C#N)c(C(F)(F)F)c1
MEASUREMENT: 4.00

COMPOUND: CC1(C)CN(Cc2cccnc2)C(=O)C1Oc1ccc(C#N)c(C(F)(F)F)c1 (racemic)
MEASUREMENT: 2.94

COMPOUND: CC1(C)CN(CCCO)C(=O)C1Oc1ccc(C#N)c(C(F)(F)F)c1 (racemic)
MEASUREMENT: 2.72

COMPOUND: COC(=O)CN1CC(C)(C)C(Oc2ccc(C#N)c(C(F)(F)F)c2)C1=O (racemic)
MEASUREMENT: 2.69

COMPOUND: CCCN1CC(C)(C)C(Oc2ccc(C#N)c(C(F)(F)F)c2)C1=O (single isomer, unassigned; (+))
MEASUREMENT: 2.35

COMPOUND: CC1(C)CN(Cc2cccc(F)c2)C(=O)C1Oc1ccc(C#N)c(C(F)(F)F)c1 (racemic)
MEASUREMENT: 1.68

====

ASSAYED SYSTEM: Androgen receptor (Homo sapiens)
METHOD DESCRIPTION: Binding affinity to human androgen receptor
pIC50: −log10 of the molar value.
Here the recorded pIC50 is given for each entry.
QUANTITY: pIC50

MOLECULE: CCC(C)N1CC(C)(C)C(Oc2ccc(C#N)c(C(F)(F)F)c2)C1=O (single isomer, unassigned; (+))
ASSAYED SYSTEM: Androgen receptor (Homo sapiens)
MEASUREMENT: 6.88

MOLECULE: CC1(C)COC(=O)C1Oc1ccc(C#N)c(C(F)(F)F)c1 (racemic)
ASSAYED SYSTEM: Androgen receptor (Homo sapiens)
MEASUREMENT: 6.95

MOLECULE: CCCCN1CC(C)(C)C(Oc2ccc(C#N)c(C(F)(F)F)c2)C1=O (racemic)
ASSAYED SYSTEM: Androgen receptor (Homo sapiens)
MEASUREMENT: 6.92

MOLECULE: CC1(C)CN(Cc2ccccc2F)C(=O)C1Oc1ccc(C#N)c(C(F)(F)F)c1 (single isomer, unassigned; (+))
ASSAYED SYSTEM: Androgen receptor (Homo sapiens)
MEASUREMENT: 6.95

MOLECULE: COCN1CC(C)(C)C(Oc2ccc(C#N)c(C(F)(F)F)c2)C1=O (racemic)
ASSAYED SYSTEM: Androgen receptor (Homo sapiens)
MEASUREMENT: 6.29

MOLECULE: CSc1ccc(CN2CC(C)(C)C(Oc3ccc(C#N)c(C(F)(F)F)c3)C2=O)cc1 (stereo in doubt; 38)
ASSAYED SYSTEM: Androgen receptor (Homo sapiens)
MEASUREMENT: 6.73

MOLECULE: CC1(C)CNC(=O)C1Oc1ccc(C#N)c(C(F)(F)F)c1 (racemic)
ASSAYED SYSTEM: Androgen receptor (Homo sapiens)
MEASUREMENT: 5.55

MOLECULE: Cc1nc(CN2CC(C)(C)C(Oc3ccc(C#N)c(C(F)(F)F)c3)C2=O)cs1 (racemic)
ASSAYED SYSTEM: Androgen receptor (Homo sapiens)
MEASUREMENT: 6.49

MOLECULE: CC1(C)CN(Cc2noc(-c3ccccc3)n2)C(=O)C1Oc1ccc(C#N)c(C(F)(F)F)c1 (racemic)
ASSAYED SYSTEM: Androgen receptor (Homo sapiens)
MEASUREMENT: 7.08

MOLECULE: CSCCN1CC(C)(C)C(Oc2ccc(C#N)c(C(F)(F)F)c2)C1=O (racemic)
ASSAYED SYSTEM: Androgen receptor (Homo sapiens)
MEASUREMENT: 5.61

MOLECULE: CC1(C)CN(Cc2ccccc2F)C(=O)C1Oc1ccc(C#N)c(C(F)(F)F)c1 (racemic)
ASSAYED SYSTEM: Androgen receptor (Homo sapiens)
MEASUREMENT: 6.76

MOLECULE: CN1CC(C)(C)C(Oc2ccc(C#N)c(C(F)(F)F)c2)C1=O (racemic)
ASSAYED SYSTEM: Androgen receptor (Homo sapiens)
MEASUREMENT: 5.92

MOLECULE: CCCCCCN1CC(C)(C)C(Oc2ccc(C#N)c(C(F)(F)F)c2)C1=O (racemic)
ASSAYED SYSTEM: Androgen receptor (Homo sapiens)
MEASUREMENT: 6.12

MOLECULE: COCCN1CC(C)(C)C(Oc2ccc(C#N)c(C(F)(F)F)c2)C1=O (racemic)
ASSAYED SYSTEM: Androgen receptor (Homo sapiens)
MEASUREMENT: 5.75

MOLECULE: CC(C)CCCN1CC(C)(C)C(Oc2ccc(C#N)c(C(F)(F)F)c2)C1=O (racemic)
ASSAYED SYSTEM: Androgen receptor (Homo sapiens)
MEASUREMENT: 6.10

MOLECULE: CC1(C)CN(Cc2ccccn2)C(=O)C1Oc1ccc(C#N)c(C(F)(F)F)c1 (racemic)
ASSAYED SYSTEM: Androgen receptor (Homo sapiens)
MEASUREMENT: 6.12

MOLECULE: CCOC(=O)c1ccc(CN2CC(C)(C)C(Oc3ccc(C#N)c(C(F)(F)F)c3)C2=O)o1 (racemic)
ASSAYED SYSTEM: Androgen receptor (Homo sapiens)
MEASUREMENT: 6.78

MOLECULE: CCOC(=O)CN1CC(C)(C)C(Oc2ccc(C#N)c(C(F)(F)F)c2)C1=O (racemic)
ASSAYED SYSTEM: Androgen receptor (Homo sapiens)
MEASUREMENT: 5.45

====

Here the recorded IC50 is given for each entry.
ASSAYED SYSTEM: Androgen receptor (Homo sapiens)
Sequence (P10275 whole entry): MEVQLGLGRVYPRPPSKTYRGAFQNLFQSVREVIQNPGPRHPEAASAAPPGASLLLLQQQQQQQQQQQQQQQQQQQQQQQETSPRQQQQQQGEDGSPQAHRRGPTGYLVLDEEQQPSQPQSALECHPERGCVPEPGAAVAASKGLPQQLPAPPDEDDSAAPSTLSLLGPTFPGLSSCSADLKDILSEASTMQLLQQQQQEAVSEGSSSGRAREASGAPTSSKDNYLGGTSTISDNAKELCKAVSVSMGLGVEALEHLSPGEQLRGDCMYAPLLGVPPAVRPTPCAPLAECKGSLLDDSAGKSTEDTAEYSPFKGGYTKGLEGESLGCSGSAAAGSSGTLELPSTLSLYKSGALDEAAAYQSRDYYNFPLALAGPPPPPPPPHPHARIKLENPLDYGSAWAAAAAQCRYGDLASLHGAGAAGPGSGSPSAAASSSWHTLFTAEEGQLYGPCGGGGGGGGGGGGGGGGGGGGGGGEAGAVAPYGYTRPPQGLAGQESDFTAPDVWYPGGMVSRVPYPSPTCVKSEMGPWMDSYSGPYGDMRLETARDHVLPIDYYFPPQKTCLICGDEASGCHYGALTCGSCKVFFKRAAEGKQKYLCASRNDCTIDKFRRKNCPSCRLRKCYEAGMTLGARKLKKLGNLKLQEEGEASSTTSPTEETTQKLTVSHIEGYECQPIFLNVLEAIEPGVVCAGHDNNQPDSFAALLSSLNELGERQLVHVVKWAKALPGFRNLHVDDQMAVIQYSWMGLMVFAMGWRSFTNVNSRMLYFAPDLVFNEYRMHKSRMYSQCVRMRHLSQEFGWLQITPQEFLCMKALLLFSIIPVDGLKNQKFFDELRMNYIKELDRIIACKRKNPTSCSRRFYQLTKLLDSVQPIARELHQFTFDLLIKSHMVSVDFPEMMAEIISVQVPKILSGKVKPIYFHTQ
METHOD DESCRIPTION: Antagonist activity at human androgen receptor by cell based assay
Assay type: functional

COMPOUND: CC1(C)COC(=O)[C@H]1Oc1ccc(C#N)c(C(F)(F)F)c1
IC50, nM: 1000

COMPOUND: CC1(C)CN(Cc2noc(-c3ccccc3)n2)C(=O)C1Oc1ccc(C#N)c(C(F)(F)F)c1 (racemic)
IC50, nM: 40

COMPOUND: CSc1ccc(CN2CC(C)(C)C(Oc3ccc(C#N)c(C(F)(F)F)c3)C2=O)cc1 (stereo in doubt; 38)
IC50, nM: 51

COMPOUND: CCCN1CC(C)(C)C(Oc2ccc(C#N)c(C(F)(F)F)c2)C1=O (racemic)
IC50, nM: 24

COMPOUND: COc1cccc(CN2CC(C)(C)C(Oc3ccc(C#N)c(C(F)(F)F)c3)C2=O)c1 (racemic)
IC50, nM: 309

COMPOUND: CC1(C)CN(Cc2ccccc2F)C(=O)C1Oc1ccc(C#N)c(C(F)(F)F)c1 (racemic)
IC50, nM: 44

COMPOUND: CC1(C)COC(=O)[C@@H]1Oc1ccc(C#N)c(C(F)(F)F)c1
IC50, nM: 42

COMPOUND: CC1(C)CN(Cc2ccccc2)C(=O)C1Oc1ccc(C#N)c(C(F)(F)F)c1 (racemic)
IC50, nM: 11

COMPOUND: CCOC(=O)c1ccc(CN2CC(C)(C)C(Oc3ccc(C#N)c(C(F)(F)F)c3)C2=O)o1 (racemic)
IC50, nM: 97

COMPOUND: CCCCN1CC(C)(C)C(Oc2ccc(C#N)c(C(F)(F)F)c2)C1=O (single isomer, unassigned; (+))
IC50, nM: 10

COMPOUND: CC1(C)CN(Cc2cccc(F)c2)C(=O)C1Oc1ccc(C#N)c(C(F)(F)F)c1 (racemic)
IC50, nM: 61

COMPOUND: CC1(C)CN(Cc2ccc(O)cc2)C(=O)C1Oc1ccc(C#N)c(C(F)(F)F)c1 (racemic)
IC50, nM: 32

COMPOUND: CC1(C)CN(Cc2ccccc2)C(=O)C1Oc1ccc(C#N)c(C(F)(F)F)c1 (single isomer, unassigned; (+))
IC50, nM: 38

COMPOUND: CC1(C)CN(Cc2ccccc2F)C(=O)C1Oc1ccc(C#N)c(C(F)(F)F)c1 (single isomer, unassigned; (+))
IC50, nM: 92

COMPOUND: CC1(C)CN(Cc2ccccc2O)C(=O)C1Oc1ccc(C#N)c(C(F)(F)F)c1 (racemic)
IC50, nM: 13

COMPOUND: CC1(C)CN(Cc2nc(-c3ccccc3)no2)C(=O)C1Oc1ccc(C#N)c(C(F)(F)F)c1 (racemic)
IC50, nM: 54

COMPOUND: CC1(C)COC(=O)C1Oc1ccc(C#N)c(C(F)(F)F)c1 (racemic)
IC50, nM: 70
